Attribution: ChEMBL document CHEMBL4610084

System: Staphylococcus aureus
Assay: Antibacterial activity against Methicillin-resistant Staphylococcus aureus MB188 after 24 hrs by microdilution assay
Format: functional
Settings: MB188, 24 h
Catalogue of MIC readings, one per entry.

- COC(=O)[C@]1(C)CCC[C@@]2(C)[C@H]1[C@@H](O)C[C@@](C)(O)[C@@H]2CC/C(C)=C/[C@H](O)[C@H]1OC(=O)C=C1C: > 128 µg/mL
- COc1ccc(-c2cc(=O)c3c(OC)c(OC)c(OC)cc3o2)cc1OC: 344 µM
- CC1=CC(=O)O[C@@H]1C/C=C(\C)CC[C@@H]1[C@@]2(C)CCC[C@@]3(C)C(O)O[C@@H](C[C@@]1(C)O)[C@H]23 (some centres undefined): > 128 µg/mL
- CC1=CC(=O)O[C@@H]1[C@@H](O)/C=C(\C)CC[C@@H]1[C@@]2(C)CCC[C@@]3(C)C(=O)O[C@@H](C[C@@]1(C)O)[C@H]23: > 128 µg/mL
- COc1ccc(-c2cc(=O)c3c(OC)c(OC)c(OC)cc3o2)cc1: > 128 µg/mL

Switching to the query record.
Bench note: what MIC did "COC(=O)[C@]1(C)CCC[C@@]2(C)[C@H]1[C@@H](O)C[C@@](C)(O)[C@@H]2CC/C(C)=C/C[C@H]1OC(=O)C=C1C" show?
> 128 µg/mL
